Test system: NF-κB
RUN DESCRIPTION: NF-κB inhibition assay, TNF-α stimulated HEK293/NF-κB-luc luciferase reporter cells
Format: cell-based
CONDITION NOTES: Homo sapiens, HEK293, 5 h, TNF-α (20 ng/mL) induced, mean ± SD of three independent measurements
Experimental: NF-κB inhibitory activity was assessed using a HEK293/NF-κB-luc cell line (Panomics, Fremont, CA) as previously described (Ndongo et al. [2017]). […] The day before the assay, cells were treated for 1 h with 2.5 μM of Cell Tracker Green CMFDA (ThermoFisher Scientific), a fluorescent dye used to quantify cell viability, in FBS-free medium. […] Luciferase assay reagent (Promega) was then added to each well using the auto-injector and the luminescence signals were read. […]
pIC50: −log10 of the molar value.
Listed below: pIC50 values for each entry.

>>> value_observed("CC1=C(C)C(=O)OC(C(C)(O)C2(O)CCC3(O)C4CC=C5CC(OC6OC(CO)C(O)C(O)C6O)CC(=O)C5(C)C4CCC32C)C1 (stereo not drawn)")
"< 4.70"
>>> value_observed("C[C@@H]1O[C@@H](OC[C@H]2O[C@@H](Oc3c(-c4ccc(O)cc4)oc4cc(O)cc(O)c4c3=O)[C@H](O)[C@@H](O)[C@@H]2O)[C@H](O)[C@H](O)[C@H]1O")
"< 4.70"

Okay, now this compound:
Notebook: CC1=C(C)C(=O)OC(C(C)(O)C2(O)CCC3(O)C4CC=C5CC(OC6OC(CO)C(OC7OC(C)C(O)C(O)C7O)C(O)C6O)CC(=O)C5(C)C4CCC32C)C1 (stereo not drawn) , pIC50 read as < 4.70
